Tested on: Trypanosoma cruzi
protocol: Concentration required to inhibit proliferation of the epimastigote form of Trypanosoma cruzi
Assay type: functional, organism-based
Please map values of IC50 to classes as shown: group 1 = under 20 µM, group 2 = from 20 µM up to 200 µM, group 3 = 200 µM and over

CCSC(=O)SCCOc1ccc(Oc2ccccc2)cc1; group 2
Clc1cc(Oc2ccccc2)ccc1OCCOC1CCCCO1 (stereo not drawn); group 2
N#CSCCOc1ccc(Oc2ccccc2)cc1; group 1
CC(C)COC(=O)SCCOc1ccc(Oc2ccccc2)cc1; group 1
C=CCOc1ccc(Sc2ccccc2)cc1; group 3
Clc1ccc(OCCOC2CCCCO2)c(Cl)c1 (stereo not drawn); group 2
C=CCOc1ccc(Cl)cc1Cl; group 3
CCOC(=O)SCCOc1ccc(Oc2ccccc2)cc1; group 1
C=CCOc1ccc(Oc2ccccc2)cc1[N+](=O)[O-]; group 2
CCOC(=S)SCCOc1ccc(Oc2ccccc2)cc1; group 2

Record c1ccc(Cc2ccc(OCCOC3CCCCO3)cc2)cc1 (stereo not drawn) — which class? group 3

# repeat for CCSC(=O)OC/C=C(\C)CCC1OC1(C)C (stereo not drawn) group 3

Try this compound too: N#CSCCCOc1ccc(Oc2ccccc2)cc1 group 1

====

System: Trypanosoma cruzi
protocol: Concentration required to inhibit proliferation of the epimastigote form of Trypanosoma cruzi
Assay type: functional, organism-based
quantity.measured: pIC50
// field semantics: pIC50 = negative decimal log of concentration (mol/L)

Brc1cc(Oc2ccccc2)ccc1OCCOC1CCCCO1 (stereo not drawn); 4.17
N#CSCCOc1ccc(OCc2ccccc2)cc1; 5.09
CCNC(=O)SCCOc1ccc(Oc2ccccc2)cc1; 4.77
C=CCOc1ccc(Oc2ccccc2)cc1I; 4.04
Brc1ccc(Oc2ccc(OCCOC3CCCCO3)cc2)cc1 (stereo not drawn); 4.07

Which value of pIC50 has been reported for CC1CS(=O)(=O)CCN1/N=C/c1ccc([N+](=O)[O-])o1 (stereo not drawn) in the records? 5.07

====

System: Trypanosoma cruzi
protocol: Concentration required to inhibit proliferation of the epimastigote form of Trypanosoma cruzi
Format: functional, organism-based
pIC50: −log10 of the molar value.
Decision: pIC50 >= 4 yields rule met, all other cases yield rule not met.

Examples with answers:
C=CCOc1ccc(Oc2ccc(C(=O)c3ccccc3)cc2)cc1; rule not met
C=CCOc1ccc(Oc2ccccc2)cc1Cl; rule not met
c1ccc(Oc2ccc(OCC3CS3)cc2)cc1 (stereo not drawn); rule met
N#CSCCOc1ccc(Cc2ccccc2)cc1; rule met

Attention now shifts to the item below.
Given C=CCOc1ccc(Oc2ccc([N+](=O)[O-])cc2)cc1 , state whether its pIC50 is at least 4. rule not met

====

System: Trypanosoma cruzi
protocol: Concentration required to inhibit proliferation of the epimastigote form of Trypanosoma cruzi
Format: functional, organism-based
quantity.measured: IC50 (µM)
# value in µM; strip the unit string

Consider the reported IC50 for these molecules:
C=CCOc1ccc(Oc2ccc(C(C)=O)cc2)cc1; 300
CCSC(=O)OC/C=C(\C)CCC=C(C)C; 298
C=CCOc1ccc(Oc2ccccc2)cc1; 221

Which measured IC50 value corresponds to C=CCOc1ccc(Oc2ccccc2)cc1Br ? 182

====

System: Trypanosoma cruzi
protocol: Concentration required to inhibit proliferation of the epimastigote form of Trypanosoma cruzi
Format: functional, organism-based
quantity.measured: pIC50
For clarity, pIC50 is expressed as the negative log10 of concentration in mol/L.

Form entry - test system: Trypanosoma cruzi; read-out: pIC50; compound: c1ccc(COc2ccc(OCCOC3CCCCO3)cc2)cc1 (stereo not drawn) 3.92

Now the same for C=CCOc1ccc(Oc2ccccc2)cc1NC(C)=O 4.01

Next compound up: C=CCSC(=S)OCCOc1ccc(Oc2ccccc2)cc1 4.02
